target: alkaline phosphatase (Bos taurus, UniProt P19111); assay: Chemiluminescent signal and signal:background with enhancer polymers (Example XVII); assay type: biochemical; conditions: polymer DAA TMQ; 5 min
Sequence (P19111 20-506 limits assumed): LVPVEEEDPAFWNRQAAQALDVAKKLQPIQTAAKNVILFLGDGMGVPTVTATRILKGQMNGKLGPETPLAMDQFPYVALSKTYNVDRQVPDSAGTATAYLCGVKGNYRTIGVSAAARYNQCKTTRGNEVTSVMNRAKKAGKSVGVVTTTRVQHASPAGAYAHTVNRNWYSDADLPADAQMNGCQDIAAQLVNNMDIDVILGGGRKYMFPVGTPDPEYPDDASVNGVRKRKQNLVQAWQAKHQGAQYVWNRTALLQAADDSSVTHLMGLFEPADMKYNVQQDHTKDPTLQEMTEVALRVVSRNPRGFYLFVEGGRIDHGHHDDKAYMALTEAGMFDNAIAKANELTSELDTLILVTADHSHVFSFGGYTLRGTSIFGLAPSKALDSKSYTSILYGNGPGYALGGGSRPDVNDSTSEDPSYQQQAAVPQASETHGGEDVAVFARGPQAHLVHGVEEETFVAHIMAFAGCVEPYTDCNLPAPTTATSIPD
Kindly supply the reported S/N values for the records listed here.

Please supply S/N for each of the following items, keeping them in order.
1. COC1(c2cccc(OP(=O)(O)O)c2)OOC12C1CC3CC2CC(Cl)(C3)C1 (stereo not shown) [Cl-AMPPD]
2. COC1(c2cccc(OP(=O)(O)O)c2)OOC12C1CC3CC(C1)CC2C3 (stereo not shown) [AMPPD, reference compound]
3. COC1(c2cccc(OP(=O)(O)O)c2)OOC12C1CC3CC2CC(O)(C3)C1 (single isomer, unassigned) [A-OH-AMPPD]
4. COC1(c2cccc(OP(=O)(O)O)c2)OOC12C1CC3CC2CC(O)(C3)C1 (single isomer, unassigned) [B-OH-AMPPD]

[reply]
125.1
46.4
61.7
40.3
